Below: a set of entries, each annotated with reported % inhibition (20 µM) biochemical.
- target: SARS2 M^pro (Severe acute respiratory syndrome coronavirus 2, UniProt P0DTD1, P3395H)
- Assay type: biochemical, SARS-CoV-2

molecule: Cc1cc(C(=O)CCl)c(C)n1Cc1ccco1
target: SARS2 M^pro (Severe acute respiratory syndrome coronavirus 2, UniProt P0DTD1, P3395H)
unit.name: %
% inhibition (20 µM) biochemical: 62

molecule: COC(=O)c1c(NC(=O)CCl)sc(C(=O)N2CCOCC2)c1C
target: SARS2 M^pro (Severe acute respiratory syndrome coronavirus 2, UniProt P0DTD1, P3395H)
unit.name: %
% inhibition (20 µM) biochemical: 74

molecule: N#Cc1ccccc1CN1C(=O)C(=O)c2ccccc21
target: SARS2 M^pro (Severe acute respiratory syndrome coronavirus 2, UniProt P0DTD1, P3395H)
unit.name: %
% inhibition (20 µM) biochemical: 7

molecule: Cc1ccc2nc(N3C(=O)C(O)=C(C(=O)c4ccco4)C3c3ccco3)sc2c1 (stereo not drawn)
target: SARS2 M^pro (Severe acute respiratory syndrome coronavirus 2, UniProt P0DTD1, P3395H)
unit.name: %
% inhibition (20 µM) biochemical: 16

molecule: CCOc1ccccc1N1C(=O)CC(Sc2nnc(-c3ccccc3)[nH]2)C1=O (stereo not drawn)
target: SARS2 M^pro (Severe acute respiratory syndrome coronavirus 2, UniProt P0DTD1, P3395H)
unit.name: %
% inhibition (20 µM) biochemical: 2.63

molecule: COc1ccc(C=O)cc1OS(=O)(=O)c1ccc(C)cc1
target: SARS2 M^pro (Severe acute respiratory syndrome coronavirus 2, UniProt P0DTD1, P3395H)
unit.name: %
% inhibition (20 µM) biochemical: 3.71

molecule: CC(C)(C)N1C(=O)c2ccc(C(=O)Nc3cccc(O)c3)cc2C1=O
target: SARS2 M^pro (Severe acute respiratory syndrome coronavirus 2, UniProt P0DTD1, P3395H)
unit.name: %
% inhibition (20 µM) biochemical: 5.66

molecule: COc1ccc(C2(C)CC(C)(C)N(C(C)=O)c3ccccc32)cc1 (stereo not drawn)
target: SARS2 M^pro (Severe acute respiratory syndrome coronavirus 2, UniProt P0DTD1, P3395H)
unit.name: %
% inhibition (20 µM) biochemical: 4.45

molecule: Cc1noc(N)c1C(=O)Nc1ccc(C(C)(C)C)cc1
target: SARS2 M^pro (Severe acute respiratory syndrome coronavirus 2, UniProt P0DTD1, P3395H)
unit.name: %
% inhibition (20 µM) biochemical: 0

molecule: Cc1c(C(=O)N2CCCCC2C)sc2nc(-c3ccc(F)cc3)cn12 (stereo not drawn)
target: SARS2 M^pro (Severe acute respiratory syndrome coronavirus 2, UniProt P0DTD1, P3395H)
unit.name: %
% inhibition (20 µM) biochemical: 5.44

molecule: COc1cc(OC)cc(C(=O)Nc2ccc(OC(C)C)cc2)c1
target: SARS2 M^pro (Severe acute respiratory syndrome coronavirus 2, UniProt P0DTD1, P3395H)
unit.name: %
% inhibition (20 µM) biochemical: 5

molecule: COC(=O)CSC1=C(C#N)C(c2ccccc2OC)CC(=O)N1 (stereo not drawn)
target: SARS2 M^pro (Severe acute respiratory syndrome coronavirus 2, UniProt P0DTD1, P3395H)
unit.name: %
% inhibition (20 µM) biochemical: 4.32

molecule: S=C(c1ccc(-c2cccc(Cl)c2)o1)N1CCCCC1
target: SARS2 M^pro (Severe acute respiratory syndrome coronavirus 2, UniProt P0DTD1, P3395H)
unit.name: %
% inhibition (20 µM) biochemical: 0

molecule: O=C(CC(SCc1ccco1)c1ccc(Cl)cc1)c1cccs1 (stereo not drawn)
target: SARS2 M^pro (Severe acute respiratory syndrome coronavirus 2, UniProt P0DTD1, P3395H)
unit.name: %
% inhibition (20 µM) biochemical: 0

molecule: CCOc1ccccc1OCCCOc1ccccc1C=O
target: SARS2 M^pro (Severe acute respiratory syndrome coronavirus 2, UniProt P0DTD1, P3395H)
unit.name: %
% inhibition (20 µM) biochemical: 2.44
